These measurements were taken from the supplement of paper PMC7393113.

# System: iBMDM (immortalised mouse bone-marrow-derived macrophages), LPS-stimulated
# experimental-protocol: mitochondrial superoxide (MitoSOX fluorescence) fold increase over unstimulated control; higher = more LPS-induced mitochondrial ROS (less inhibition)
# settings: inhibitor concentration: 500 nM; LPS: 100 ng/ml; time after LPS: 1 h
endpoint: mitochondrial superoxide
API doc: respond with a numeric literal and nothing else, no unit.

smiles-notation: O=c1ncn2nc(Sc3ccc(F)cc3F)ccc2c1-c1c(Cl)cccc1Cl
measurement: 1.16
--
smiles-notation: Cc1cnc(NC(=O)Nc2cc(Br)c(C)cc2OC[C@@H]2CNCCO2)cn1
measurement: 1.12
--
smiles-notation: N#C/C(=C(/N)Sc1ccc(N)cc1)c1ccccc1C(F)(F)F
measurement: 1.35

Prompt line: Quick check: mitochondrial superoxide of Nc1nc(NCCNc2ncc(-n3ccnc3)c(-c3ccc(Cl)cc3Cl)n2)ccc1[N+](=O)[O-] ?
Response line: 1.17

Prompt line: Need mitochondrial superoxide of O=c1cc(N2CCOCC2)oc2c1ccc1ccccc12 , thanks.
Response line: 1.13

Prompt line: Could you tell me which mitochondrial superoxide is on file for N#Cc1c(O)c2c(-c3ccc(-c4ccccc4O)cc3)csc2[nH]c1=O ?
Response line: 1.3

Prompt line: Requested field: mitochondrial superoxide. Item: COc1ccc(-c2ccc3c(N4CCOC[C@@H]4C)nc(N4CCOC[C@@H]4C)nc3n2)cc1CO
Response line: 1.14

Prompt line: What value of mitochondrial superoxide has been recorded for this entry: COc1ccc2c(Oc3ccc(NC(=O)c4c(C)n(CC(C)(C)O)n(-c5ccccc5)c4=O)nc3)ccnc2c1
Response line: 1.09

Prompt line: Name the recorded mitochondrial superoxide for CCN(CCO)CCCOc1ccc2c(Nc3cc(CC(=O)Nc4cccc(F)c4)[nH]n3)ncnc2c1 .
Response line: 1.33

* * *

# System: iBMDM (immortalised mouse bone-marrow-derived macrophages), LPS-stimulated
# experimental-protocol: mitochondrial superoxide (MitoSOX fluorescence) fold increase over unstimulated control; higher = more LPS-induced mitochondrial ROS (less inhibition)
# settings: inhibitor concentration: 500 nM; LPS: 100 ng/ml; time after LPS: 2 h
endpoint: mitochondrial superoxide
Just the number, please.

compound: Cc1cc2c(F)c(Oc3ncnn4cc(OC[C@@H](C)O)c(C)c34)ccc2[nH]1
measurement: 1.44

compound: CNC(=O)c1cccc(-c2ccc3c(N4CCOC[C@@H]4C)nc(N4CCOC[C@@H]4C)nc3n2)c1
measurement: 1.46

compound: Cc1ccc(NC(=O)c2ccc(CN3CCN(C)CC3)cc2)cc1Nc1nccc(-c2cccnc2)n1 [Imatinib (STI571)]
measurement: 1.39

compound: COc1ccc(CNC(=O)Nc2ncc([N+](=O)[O-])s2)cc1
measurement: 1.54

compound: CCc1cncnc1N1CCN(Cc2nc3ccc(C(F)(F)F)cc3[nH]2)CC1
measurement: 1.23

compound: Cc1cc(C)c(/C=C2\C(=O)Nc3ccccc32)[nH]1 [Semaxanib (SU5416)]
measurement: 1.22

Prompt line: If you can, please state the reported mitochondrial superoxide value of C[C@@H]1CN(CC(=O)Nc2ccc3c(c2)Cc2cccc(-c4cc(=O)cc(N5CCOCC5)o4)c2S3)C[C@H](C)O1 .
Response line: 1.31

Prompt line: Which measured mitochondrial superoxide value corresponds to CCc1cnn2c(NCc3ccc[n+]([O-])c3)cc(N3CCCC[C@H]3CCO)nc12 ?
Response line: 1.33

* * *

# System: iBMDM (immortalised mouse bone-marrow-derived macrophages), LPS-stimulated
# experimental-protocol: mitochondrial superoxide (MitoSOX fluorescence) fold increase over unstimulated control; higher = more LPS-induced mitochondrial ROS (less inhibition)
# settings: inhibitor concentration: 500 nM; LPS: 100 ng/ml; time after LPS: 1 h
Recorded measurements of mitochondrial superoxide, one per entry
API note: the answer field is a bare number with no unit suffix.

Check out these entries, answers already filled in.
compound: N#CC(=Cc1ccc(O)c(O)c1)C(=O)NCc1ccccc1 [AG-490 (Tyrphostin B42)]
mitochondrial superoxide: 1.35
--
compound: CN(C)C1CCN(C(=O)c2ccc(NC(=O)Nc3ccc(-c4nc(N5CCOCC5)nc(N5CCOCC5)n4)cc3)cc2)CC1
mitochondrial superoxide: 1.1

Prompt line: Look up mitochondrial superoxide for this compound: O=Nc1c(-c2c(O)[nH]c3cc(Br)ccc23)[nH]c2ccccc12
Response line: 1.3

Prompt line: Data request, read-out mitochondrial superoxide, for C[C@@]1(C(=O)Nc2ccc(F)nc2)CCCN1c1nc(Nc2cc(C3CC3)n[nH]2)c2cccn2n1
Response line: 1.38

* * *

# System: iBMDM (immortalised mouse bone-marrow-derived macrophages), LPS-stimulated
# experimental-protocol: mitochondrial superoxide (MitoSOX fluorescence) fold increase over unstimulated control; higher = more LPS-induced mitochondrial ROS (less inhibition)
# settings: inhibitor concentration: 500 nM; LPS: 100 ng/ml; time after LPS: 2 h
Structures can show the parent of a compound that is named as a salt.
The following compounds are listed with their measured mitochondrial superoxide values.
Please reply with the value in numeric form only.

compound: COC(=O)c1ccc2c(C(=Nc3ccc(N(C)C(=O)CN4CCN(C)CC4)cc3)c3ccccc3)c(O)[nH]c2c1
mitochondrial superoxide: 1.5
//
compound: C[C@@H]1COC(Nc2ccc3ncnc(Nc4ccc(OCc5nccs5)c(Cl)c4)c3c2)=N1
mitochondrial superoxide: 1.39
//
compound: c1cncc(CN2CCC(n3ncc4c(N5CCOCC5)nc(-c5ccc6[nH]ccc6c5)nc43)CC2)c1
mitochondrial superoxide: 1.48
//
compound: COc1cc2c(Oc3ccc4[nH]c(C)cc4c3F)ncnc2cc1OCCCN1CCCC1
mitochondrial superoxide: 1.65
//
compound: COc1cc(N2CCC(N(C)C)CC2)ccc1Nc1ncc(Cl)c(Nc2ccccc2P(C)(C)=O)n1
mitochondrial superoxide: 1.27

Prompt line: Item CCN1C(=CC(C)=O)Sc2ccc(OC)cc21 has what recorded mitochondrial superoxide?
Response line: 1.44

Prompt line: What does the record list as mitochondrial superoxide for CO[C@H]1C[C@@H]2CC[C@@H](C)[C@@](O)(O2)C(=O)C(=O)N2CCCC[C@H]2C(=O)O[C@H]([C@H](C)C[C@@H]2CC[C@@H](OC(=O)C(C)(CO)CO)[C@H](OC)C2)CC(=O)[C@H](C)/C=C(\C)[C@@H](O)[C@@H](OC)C(=O)[C@H](C)C[C@H](C)/C=C/C=C/C=C/1C ?
Response line: 1.65

Prompt line: Entry NC(=O)c1cccc(-c2cc(Nc3ccc(OC(F)(F)F)cc3)ncn2)c1 : reported mitochondrial superoxide = ?
Response line: 1.11

Prompt line: So what's the measured mitochondrial superoxide for this one? CCN(CCO)CCCOc1ccc2c(Nc3cc(CC(=O)Nc4cccc(F)c4)[nH]n3)ncnc2c1
Response line: 1.39

Prompt line: # input compound: C=CC(=O)Nc1cc2c(Nc3ccc(F)c(Cl)c3)ncnc2cc1OCCCN1CCOCC1 ; wanted: its mitochondrial superoxide
Response line: 1.55

Prompt line: Fill blank: measured mitochondrial superoxide of the compound CNC(=O)c1cc(Oc2ccc(NC(=O)Nc3ccc(Cl)c(C(F)(F)F)c3)cc2)ccn1 [Sorafenib] is ____.
Response line: 1.45

Prompt line: Give its mitochondrial superoxide value. Item: Cc1ccc(NC(=O)c2ccc(CN3CCN(C)CC3)cc2)cc1Nc1nc(-c2cccnc2)cs1
Response line: 1.52

Prompt line: Query (compound): N#CC1(c2ccc(NC(=O)c3cccnc3NCc3ccncc3)cc2)CCCC1 ; field requested: mitochondrial superoxide
Response line: 1.18

Prompt line: Record request: mitochondrial superoxide value, item Cc1ccc(NC(=O)c2cccc(C(C)(C)C#N)c2)cc1Nc1ccc2ncn(C)c(=O)c2c1
Response line: 1.14

Prompt line: Consider the compound CCN(CC)CCCC(C)Nc1nc(C)cc(Nc2ccc3nc(C)cc(N)c3c2)n1 (centres undefined) and give its measured mitochondrial superoxide.
Response line: 1.53

Prompt line: Item under review: Cc1ncc(-c2ccnc(Nc3ccc(S(C)(=O)=O)cc3)n2)n1C(C)C . Reported mitochondrial superoxide?
Response line: 1.46

Prompt line: Please report the recorded mitochondrial superoxide for COc1ncc(-c2ccc3nccc(-c4ccnnc4)c3c2)cc1NS(=O)(=O)c1ccc(F)cc1F .
Response line: 1.42

Prompt line: If you can, please state the reported mitochondrial superoxide value of CNC(=O)c1cc(Oc2ccc(NC(=O)Nc3ccc(Cl)c(C(F)(F)F)c3)cc2)ccn1 [Sorafenib Tosylate] .
Response line: 1.68

Prompt line: mitochondrial superoxide lookup needed for Cn1cnc(=N)c2[nH]cnc21 , thanks.
Response line: 1.34

Prompt line: What does the record list as mitochondrial superoxide for COc1ccc(-c2ccc3ncc4c(c3c2)n(-c2ccc(N3CCNCC3)c(C(F)(F)F)c2)c(=O)n4C)cn1 ?
Response line: 1.27

Prompt line: Quick one: mitochondrial superoxide for Cn1cc(C2=C(c3cn(CCCSC(=N)N)c4ccccc34)C(=O)NC2=O)c2ccccc21 [Ro 31-8220 Mesylate] ?
Response line: 1.6

* * *

# Tested on: iBMDM (immortalised mouse bone-marrow-derived macrophages), LPS-stimulated
# experimental-protocol: mitochondrial superoxide (MitoSOX fluorescence) fold increase over unstimulated control; higher = more LPS-induced mitochondrial ROS (less inhibition)
# settings: inhibitor concentration: 500 nM; LPS: 100 ng/ml; time after LPS: 2 h
# mitochondrial superoxide per entry

// solved cases for mitochondrial superoxide follow
molecule: COc1ccc(S(=O)(=O)N(C(C)=O)c2ccccc2/C=C/c2cc[n+]([O-])cc2)cc1
mitochondrial superoxide: 1.17

molecule: Cc1c(Cn2c(C)nc3c(C(=O)O)cc(N4CCOCC4)cc32)cccc1C(F)(F)F
mitochondrial superoxide: 1.5

molecule: CN1CCN(C2CCN(C(=O)Nc3cc(Oc4ccc(NC(=O)C5(C(=O)Nc6ccc(F)cc6)CC5)c(F)c4)ccn3)CC2)CC1 [Golvatinib (E7050)]
mitochondrial superoxide: 1.08

molecule: Cc1csc(-c2nnc(Nc3ccc(Oc4ncccc4-c4ccnc(N)n4)cc3)c3ccccc23)c1
mitochondrial superoxide: 1.5

molecule: Oc1ccc(Nc2nc(-c3ccc(Cl)cc3)cs2)cc1
mitochondrial superoxide: 1.56

molecule: COc1ccc(-c2cc3c(C)nc(N)nc3n([C@H]3CC[C@H](OCCO)CC3)c2=O)cn1
mitochondrial superoxide: 1.53

molecule: CS(=O)(=O)N1CCN(Cc2cc3nc(-c4cccc5[nH]ncc45)nc(N4CCOCC4)c3s2)CC1
mitochondrial superoxide: 1.42

molecule: CNC(=O)c1nn(C)c2c1C(C)(C)Cc1cnc(Nc3ccc(N4CCN(C)CC4)cc3)nc1-2
mitochondrial superoxide: 1.38

Prompt line: Entry under review: Cn1cc(-c2ccc3ncc(Cc4ccc5ncccc5c4)n3n2)cn1 . Reported mitochondrial superoxide?
Response line: 1.34

Prompt line: For the molecule shown here, Cc1cc([C@@H](C)Nc2ccccc2C(=O)O)c2nc(N3CCOCC3)cc(=O)n2c1 , give the reported mitochondrial superoxide.
Response line: 1.22

Prompt line: Would you mind telling me what mitochondrial superoxide value was observed for CCN(CC)CCNC(=O)c1c(C)[nH]c(/C=C2\C(=O)Nc3ccc(F)cc32)c1C [Sunitinib Malate] ?
Response line: 1.73
